Values were extracted from ChEMBL document CHEMBL4431336.

Study System: Muscarinic acetylcholine receptor M5 (Homo sapiens)
Sequence (whole entry): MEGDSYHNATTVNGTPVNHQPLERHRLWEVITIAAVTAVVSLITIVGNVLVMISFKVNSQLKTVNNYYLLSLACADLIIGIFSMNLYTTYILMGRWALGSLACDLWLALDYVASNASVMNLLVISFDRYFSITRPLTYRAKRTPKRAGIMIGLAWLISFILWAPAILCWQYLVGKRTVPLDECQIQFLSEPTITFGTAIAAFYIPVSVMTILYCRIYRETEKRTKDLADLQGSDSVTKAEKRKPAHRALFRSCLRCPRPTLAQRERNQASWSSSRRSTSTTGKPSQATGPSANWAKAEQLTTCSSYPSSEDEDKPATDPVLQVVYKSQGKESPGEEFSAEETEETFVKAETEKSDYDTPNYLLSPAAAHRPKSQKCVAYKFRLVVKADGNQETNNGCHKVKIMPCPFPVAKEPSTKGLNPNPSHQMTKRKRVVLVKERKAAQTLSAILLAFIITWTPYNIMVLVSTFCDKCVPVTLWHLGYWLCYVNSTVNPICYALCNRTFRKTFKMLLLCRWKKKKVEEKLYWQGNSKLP
Assay Info: Antagonist activity at human muscarinic M5 receptor assessed as inhibition of acetylcholine-induced calcium response at 10 uM
Type: functional
Activity calls are given as the source filed them. The rule behind the calls is not given here.
Measured Metric: inhibition

Below, each entry is followed by its recorded inhibition result.
- O=S(=O)(c1cc(F)c(F)c(F)c1)N1CCC2(CC1)OCCS2: 55%
- Cc1c(S(=O)(=O)N2CCC3(CC2)OCCS3)cnn1C: 83%
- Cc1noc(C)c1S(=O)(=O)N1CCC2(CC1)OCCS2: 40%
- Cn1cc(S(=O)(=O)N2CCC3(CC2)OCCS3)cn1: 27%

Per the records, this compound ( `Cc1nn(C)c(C)c1S(=O)(=O)N1CCC2(CC1)SCCS2` ) has inhibition equal to 86%

inhibition reported for this compound `Cc1nn(C)cc1S(=O)(=O)N1CCC2(CC1)OCCS2` : inactive

inhibition recorded for this compound, `O=S(=O)(c1cc(F)cc(F)c1)N1CCC2(CC1)OCCS2` , is 62%

// field: inhibition; key: `O=S(=O)(c1ccc(F)c(Cl)c1)N1CCC2(CC1)OCCS2` ; value = 83%

For this compound ( `Cc1nn(C)c(C)c1S(=O)(=O)N1CCC2(CC1)OCCO2` ), measured inhibition is 45%

Entry `Cn1cnc(S(=O)(=O)N2CCC3(CC2)OCCS3)c1` ; inhibition = inactive

Notebook: `Cc1nn(C)c(C)c1S(=O)(=O)N1CCC2(CCCO2)CC1` , inhibition read as 37%

---

Could you please report measured pIC50 for the items listed next?
Study System: Muscarinic acetylcholine receptor M1 (Homo sapiens)
Sequence (P11229 whole entry): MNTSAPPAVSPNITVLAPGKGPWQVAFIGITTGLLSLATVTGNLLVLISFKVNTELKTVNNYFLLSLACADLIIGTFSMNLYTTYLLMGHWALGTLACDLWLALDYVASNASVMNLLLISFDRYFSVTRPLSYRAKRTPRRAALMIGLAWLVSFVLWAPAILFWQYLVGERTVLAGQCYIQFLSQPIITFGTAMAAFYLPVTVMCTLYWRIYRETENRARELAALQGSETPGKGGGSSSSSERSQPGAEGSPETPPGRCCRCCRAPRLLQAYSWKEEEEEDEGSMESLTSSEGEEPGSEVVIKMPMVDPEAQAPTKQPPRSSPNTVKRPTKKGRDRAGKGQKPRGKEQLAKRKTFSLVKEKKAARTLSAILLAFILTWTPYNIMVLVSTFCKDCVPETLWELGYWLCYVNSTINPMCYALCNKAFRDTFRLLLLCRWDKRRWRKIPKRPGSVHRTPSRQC
Assay Info: Antagonist activity at human muscarinic M1 receptor assessed as inhibition of acetylcholine-induced calcium response
pIC50: −log10 of the molar value.

In plain terms, `COc1ccc([C@@]23c4ccccc4C(=O)N2CCN3C(=O)c2cc(F)c(F)c(F)c2)cc1C` has a documented pIC50 of < 4.52

Just so you know, measured pIC50 for `Cc1nn(C)c(C)c1S(=O)(=O)N1CCC2(CC1)OCCS2` came out at < 5.00

Summary for this compound, `Fc1cc(F)cc(-c2nnc(Cc3nc(-c4ccc5c(c4)OCO5)no3)o2)c1` : pIC50 is 5.55
